All values here come from patent US8236818B2.

Target: melanocortin-4 receptor (Homo sapiens)
Construct: expressed in transfected cells; host or cells: HEK293 cells (membrane preparations)
Sequence (P32245 whole entry): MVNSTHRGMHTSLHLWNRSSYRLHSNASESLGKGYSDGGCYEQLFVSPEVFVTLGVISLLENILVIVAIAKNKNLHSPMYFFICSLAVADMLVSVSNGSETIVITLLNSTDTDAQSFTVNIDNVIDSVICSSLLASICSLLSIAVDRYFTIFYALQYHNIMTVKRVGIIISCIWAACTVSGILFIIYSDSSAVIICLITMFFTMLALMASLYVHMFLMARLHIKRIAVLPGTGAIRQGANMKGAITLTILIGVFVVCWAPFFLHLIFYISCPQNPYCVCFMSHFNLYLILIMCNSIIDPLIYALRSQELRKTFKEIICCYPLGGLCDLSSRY
Experiment: Functional assay (cAMP fluorescence polarization, membrane based, agonistic activity)
Format: biochemical
Settings: 2 h; read-out: % activation functional assay
MEASURE: Emax (%)

Some compounds with recorded Emax:
{"COMPOUND": "CC(=O)OCCOc1ccc(-c2nc3ccc(C(=O)N(CCC(C)C)CCC(C)C)cn3c2CCCN2CCCC2)cn1", "Emax, %": 1}
{"COMPOUND": "CC(C)CCN(CCC(C)C)C(=O)c1ccc2nc(-c3ccc(=O)n(CCO)c3)c(CCCN3CCCC3C)n2c1 (stereo not drawn)", "Emax, %": -20}
{"COMPOUND": "CCCC1CCCN1C(=O)c1ccc2nc(-c3ccc(C#N)cc3)c(CCCN3CCCC3)n2c1 (stereo not drawn)", "Emax, %": 0}

P = COc1cccc(-c2nc3ccc(C(=O)N(CCC(C)C)CCC(C)C)cn3c2CCCN2CCN(C)CC2)c1
Q = CC(C)CCN(CCC(C)C)C(=O)c1ccc2nc(-c3ncco3)c(CCCN3CCC(O)CC3)n2c1
Exercise: // which entry has the larger Emax value, P or Q ? Pick one; state its label.
Key: Q
(Q: 4%, P: 0%)
